Target: 17β-HSD1 (Homo sapiens, UniProt P14061)
Construct: was measured in intact cell monolayers of T47D and MDA-MB-231 breast cancer cells respectively; endogenous in cells; host or cells: T-47D human breast cancer cells
Assay: 17β-HSD Type I activity in T-47D cells (E1→E2)
Format: cell-based
Conditions: T-47D cells, E1→E2; read-out: IC50 (17β-HSD1)
pIC50: −log10 of the molar value.
Measured pIC50 by item

{"COMPOUND": "COc1cc2c(cc1O)CCC1C2CC[C@]2(C)C(=O)C(CC(=O)NCc3cccnc3)CC12 (stereo partly drawn)", "TARGET SYSTEM": "17β-HSD1 (Homo sapiens, UniProt P14061)", "pIC50": 6.54}
{"COMPOUND": "C[C@]12CCC3c4ccc(O)cc4CCC3C1Cc1c2n[nH]c1C(=O)NCc1cccnc1 (stereo partly drawn)", "TARGET SYSTEM": "17β-HSD1 (Homo sapiens, UniProt P14061)", "pIC50": 6.11}
{"COMPOUND": "C[C@]12CCC3c4ccc(O)cc4CCC3C1Cc1cn(CCC#N)nc12 (stereo partly drawn)", "TARGET SYSTEM": "17β-HSD1 (Homo sapiens, UniProt P14061)", "pIC50": 6.14}
{"COMPOUND": "Cn1cccc1CNC(=O)c1[nH]nc2c1CC1C3CCc4cc(O)ccc4C3CC[C@]21C (stereo partly drawn)", "TARGET SYSTEM": "17β-HSD1 (Homo sapiens, UniProt P14061)", "pIC50": 5.64}
{"COMPOUND": "C[C@]12CCC3c4ccc(O)cc4C(=O)CC3C1Cc1c[nH]nc12 (stereo partly drawn)", "TARGET SYSTEM": "17β-HSD1 (Homo sapiens, UniProt P14061)", "pIC50": 6.34}
{"COMPOUND": "C[C@]12CCC3c4ccc(O)cc4CCC3C1C/C(=C/O)C2=O (stereo partly drawn)", "TARGET SYSTEM": "17β-HSD1 (Homo sapiens, UniProt P14061)", "pIC50": 6.96}
{"COMPOUND": "C[C@]12CCC3c4ccc(O)cc4C(=O)CC3C1C/C(=C/O)C2=O (stereo partly drawn)", "TARGET SYSTEM": "17β-HSD1 (Homo sapiens, UniProt P14061)", "pIC50": 6.15}
{"COMPOUND": "CNC(=O)CC1CC2C3CCc4cc(O)ccc4C3CC[C@]2(C)C1=O (stereo partly drawn)", "TARGET SYSTEM": "17β-HSD1 (Homo sapiens, UniProt P14061)", "pIC50": 5.82}
{"COMPOUND": "C[C@]12CCC3c4ccc(OS(N)(=O)=O)cc4CCC3C1CC(C#N)C2=O (stereo partly drawn)", "TARGET SYSTEM": "17β-HSD1 (Homo sapiens, UniProt P14061)", "pIC50": 5.00}
{"COMPOUND": "C[C@]12CCC3c4ccc(O)cc4CCC3C1CC(CC(=O)NCc1cccnc1)C2=O (stereo partly drawn)", "TARGET SYSTEM": "17β-HSD1 (Homo sapiens, UniProt P14061)", "pIC50": 7.48}
{"COMPOUND": "COCCn1cc2c(n1)[C@@]1(C)CCC3c4ccc(O)cc4CCC3C1C2 (stereo partly drawn)", "TARGET SYSTEM": "17β-HSD1 (Homo sapiens, UniProt P14061)", "pIC50": 6.28}
{"COMPOUND": "COC(=O)Cn1cc2c(n1)[C@@]1(C)CCC3c4ccc(O)cc4CCC3C1C2 (stereo partly drawn)", "TARGET SYSTEM": "17β-HSD1 (Homo sapiens, UniProt P14061)", "pIC50": 6.04}
{"COMPOUND": "CCOC(=O)c1[nH]nc2c1CC1C3CCc4cc(O)ccc4C3CC[C@]21C (stereo partly drawn)", "TARGET SYSTEM": "17β-HSD1 (Homo sapiens, UniProt P14061)", "pIC50": 5.73}
{"COMPOUND": "C[C@]12CCC3c4ccc(O)cc4CCC3C1CC(CC(=O)NCC1CCCO1)C2=O (stereo partly drawn)", "TARGET SYSTEM": "17β-HSD1 (Homo sapiens, UniProt P14061)", "pIC50": 6.42}
{"COMPOUND": "C[C@]12CCC3c4ccc(O)cc4CCC3C1Cc1c2n[nH]c1CO (stereo partly drawn)", "TARGET SYSTEM": "17β-HSD1 (Homo sapiens, UniProt P14061)", "pIC50": 6.02}
{"COMPOUND": "C[C@]12CCC3c4ccc(O)cc4CCC3C1CC(C(=O)O)C2=O (stereo partly drawn)", "TARGET SYSTEM": "17β-HSD1 (Homo sapiens, UniProt P14061)", "pIC50": 6.03}
{"COMPOUND": "C[C@]12CCC3c4ccc(O)cc4CCC3C1CC(C#N)C2=O (stereo partly drawn)", "TARGET SYSTEM": "17β-HSD1 (Homo sapiens, UniProt P14061)", "pIC50": 5.00}
{"COMPOUND": "C[C@]12CCC3c4ccc(O)cc4CCC3C1Cc1c2n[nH]c1C(=O)NCCc1cccnc1 (stereo partly drawn)", "TARGET SYSTEM": "17β-HSD1 (Homo sapiens, UniProt P14061)", "pIC50": 6.52}

Cited source for all entries: patent US8003783B2
